test system: HCI-024 (organoid from a breast cancer xenograft); test: CTG-3D luminescence at 96 h relative to day-0 seeding control (ratio to day 0); higher = more growth / less cytotoxicity; PDxO 3D drug screen (set 2), 96 h, CTG-3D normalised to day-0 seeding control.; conditions: 100 µM; days in culture: 231
We use 0.03 as the dividing line for CTG-3D luminescence at 96 h: on or above the line is Yes, below is No.

Identify whether the reported CTG-3D luminescence at 96 h of the following compound is 0.03 or greater: Nc1cc(C(F)(F)F)c(-c2cc(N3CCOCC3)nc(N3CCOCC3)n2)cn1
Yes

// inclusive: CTG-3D luminescence at 96 h at least 0.03? input: CS(=O)(=O)CCNCc1ccc(-c2ccc3ncnc(Nc4ccc(OCc5cccc(F)c5)c(Cl)c4)c3c2)o1
No
